The values you see were collected from patent US11149031B2.

- MEASUREMENT TARGET: His6-ERα298-554 D538G mutant (ERα ligand-binding domain) (Homo sapiens (Human), UniProt P03372, D538G)
- Sequence (P03372 298-554 D538G): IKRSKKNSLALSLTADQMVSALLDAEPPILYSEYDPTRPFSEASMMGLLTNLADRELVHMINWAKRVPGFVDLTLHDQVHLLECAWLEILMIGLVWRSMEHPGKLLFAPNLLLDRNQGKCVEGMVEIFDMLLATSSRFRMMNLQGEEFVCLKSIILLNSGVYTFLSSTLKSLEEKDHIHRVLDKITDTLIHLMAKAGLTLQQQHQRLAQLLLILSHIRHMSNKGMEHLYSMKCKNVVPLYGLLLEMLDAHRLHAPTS
- EXPERIMENTAL DETAILS: Test A: biochemical antagonist activity, LanthaScreen TR-FRET ERα coactivator assay, D538G mutant
- CONDITION DESCRIPTION: asterisk (*): protocol using 10 nM estradiol; read-out: Antagonism D538G IC50
PARAMETER MEASURED: log10(IC50) (log10 of the value in nM)
Values below are the log10 of the recorded IC50, with nM as the unit.

Q) Answer with the recorded log10(IC50) of Oc1ccc2c(c1)SCC(c1ccc(OC3COC3)cc1)=C2c1ccc(O[C@H]2CCN(CCCF)C2)cc1 [Example 44] only.
A) 3.47

Q) Answer with the recorded log10(IC50) of CCOc1ccc(C2=C(c3ccc(O[C@H]4CCN(CCCF)C4)cc3)c3ccc(O)cc3SCC2)c(C)c1 [Example 186] only.
A) 1.32

Q) Answer with the recorded log10(IC50) of Oc1ccc2c(c1)CCCC(c1ccc(Cl)cc1Cl)=C2c1ccc(N[C@H]2CCN(CCCF)C2)cc1 [Example 85] only.
A) 1.32

Q) Answer with the recorded log10(IC50) of CCOc1ccc(C2=C(c3ccc(N[C@H]4CCN(CCCF)C4)cc3)c3ccc(O)cc3CCC2)c(F)n1 [Example 86] only.
A) 0.85

Q) Answer with the recorded log10(IC50) of CC1Cc2cc(C3=C(c4ccc(O[C@H]5CCN(CCCF)C5)cc4)c4ccc(O)cc4SCC3)ccc2O1 (some centres unmarked) [Example 197] only.
A) 1.30

Q) Answer with the recorded log10(IC50) of [2H]C([2H])([2H])Oc1ccc(C2=C(c3ccc(O[C@H]4CCN(CCCF)C4)cc3)c3ccc(O)cc3SCC2)c(F)c1 [Example 209] only.
A) 1.54

Q) Answer with the recorded log10(IC50) of Cc1ccc(C2=C(c3ccc(O[C@H]4CCN(CCCF)C4)nc3)c3ccc(O)cc3SCC2)c(Cl)c1 [Example 206] only.
A) 1.11

Q) Answer with the recorded log10(IC50) of CCOc1cc(C2=C(c3ccc(O[C@H]4CCN(CCCF)C4)cc3)c3ccc(O)cc3SCC2)ccc1F [Example 195] only.
A) 2.53

Q) Answer with the recorded log10(IC50) of Oc1ccc2c(c1)SCC(c1ccc(Cl)nc1F)=C2c1ccc(O[C@H]2CCN(CCCF)C2)cc1 [Example 55] only.
A) 2.99

Q) Answer with the recorded log10(IC50) of CCOc1ccc(C2=C(c3ccc(O[C@H]4CCN(CCCF)C4)cc3)c3ccc(O)cc3SC2)c(Cl)c1 [Example 36] only.
A) 2.41

Q) Answer with the recorded log10(IC50) of Oc1ccc2c(c1)SCCC(c1ccc(OC(F)F)c(F)c1)=C2c1ccc(O[C@H]2CCN(CCCF)C2)nc1 [Example 207] only.
A) 0.95

Q) Answer with the recorded log10(IC50) of Oc1ccc2c(c1)CCCC(c1ccc(OC(F)F)c(F)c1)=C2c1ccc(O[C@H]2CCN(CCCF)C2)nc1 [Example 241] only.
A) 1.43

Q) Answer with the recorded log10(IC50) of CCOc1ccc(C2=C(c3ccc(O[C@H]4CCN(CCCF)C4)cc3)c3ccc(O)cc3OCC2)c(Cl)c1 [Example 153] only.
A) 2.07

Q) Answer with the recorded log10(IC50) of CC1Cc2c([nH]c3ccccc23)C(c2c(F)cc(O[C@H]3CCN(CCCF)C3)cc2F)N1CC(C)(C)F (single isomer, unassigned) [Example 256] only.
A) 2.08

Q) Answer with the recorded log10(IC50) of CC1(C)Cc2cc(C3=C(c4ccc(O[C@H]5CCN(CCCF)C5)cc4)c4ccc(O)cc4SC3)ccc2N1 [Example 29] only.
A) 2.38

Q) Answer with the recorded log10(IC50) of Oc1ccc2c(c1)CCCC(c1ccc(OC(F)(F)F)cc1)=C2c1ccc(O[C@H]2CCN(CCCF)C2)nc1 [Example 253] only.
A) 2.19

Q) Answer with the recorded log10(IC50) of Oc1ccc2c(c1F)CCCC(c1ccc(OC(F)F)c(F)c1)=C2c1ccc(O[C@H]2CCN(CCCF)C2)nc1 [Example 249] only.
A) 1.38

Q) Answer with the recorded log10(IC50) of C[C@H]1Cc2cc(C3=C(c4ccc(O[C@H]5CCN(CCCF)C5)cc4)c4ccc(O)cc4SCC3)ccc2O1 [Example 204] only.
A) 1.38

---

- MEASUREMENT TARGET: His6-ERα298-554 WT (ERα ligand-binding domain) (Homo sapiens (Human), UniProt P03372)
- Sequence (P03372 298-554): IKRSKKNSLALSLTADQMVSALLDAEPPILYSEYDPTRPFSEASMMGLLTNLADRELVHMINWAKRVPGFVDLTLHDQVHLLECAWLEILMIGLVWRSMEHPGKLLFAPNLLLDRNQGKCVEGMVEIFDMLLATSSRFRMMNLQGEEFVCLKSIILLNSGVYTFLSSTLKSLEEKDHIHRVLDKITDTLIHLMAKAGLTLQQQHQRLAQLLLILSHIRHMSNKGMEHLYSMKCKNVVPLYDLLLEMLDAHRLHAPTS
- EXPERIMENTAL DETAILS: Test A: biochemical antagonist activity, LanthaScreen TR-FRET ERα coactivator assay, WT
- CONDITION DESCRIPTION: asterisk (*): protocol using 10 nM estradiol; read-out: Antagonism WT IC50
PARAMETER MEASURED: log10(IC50) (log10 of the value in nM)
Values below are the log10 of the recorded IC50, with nM as the unit.

Q) Answer with the recorded log10(IC50) of "O=C(O)c1ccc2c(c1)CCCC(c1ccc(Cl)cc1Cl)=C2c1ccc(O[C@H]2CCN(CCCF)C2)nc1" only.
A) 0.70

Q) Answer with the recorded log10(IC50) of "Oc1ccc2c(c1)SCC(c1ccc3ncccc3c1)=C2c1ccc(O[C@H]2CCN(CCCF)C2)cc1" only.
A) 2.08

Q) Answer with the recorded log10(IC50) of "CC(C)(C)c1ccc(C2=C(c3ccc(O[C@H]4CCN(CCCF)C4)cc3)c3ccc(O)cc3SCC2)cc1" only.
A) 1.52

Q) Answer with the recorded log10(IC50) of "CC(C)(O)c1ccc(C2=C(c3ccc(O[C@H]4CCN(CCCF)C4)cc3)c3ccc(O)cc3SC2)c(F)c1" only.
A) 1.82

Q) Answer with the recorded log10(IC50) of Cc1ccc(C2=C(c3ccc(O[C@H]4CCN(CCCF)C4)cc3)c3ccc(O)cc3[S+]([O-])C2)c(F)c1 (single isomer, unassigned) [Example 71] only.
A) 3.44

Q) Answer with the recorded log10(IC50) of [O-][S+]1CCC(c2ccc(OC(F)(F)F)cc2)=C(c2ccc(O[C@H]3CCN(CCCF)C3)cc2)c2ccc(O)cc21 (single isomer, unassigned) [Example 227] only.
A) 2.59

Q) Answer with the recorded log10(IC50) of "Nc1ccc(C2=C(c3ccc(O[C@H]4CCN(CCCF)C4)cc3)c3ccc(O)cc3SC2)c(F)n1" only.
A) 1.04

Q) Answer with the recorded log10(IC50) of "Oc1ccc2c(c1)CCCC(c1ccc(OC(F)(F)F)cc1)=C2c1ccc(N[C@H]2CCN(CCCF)C2)cc1" only.
A) 1.36

Q) Answer with the recorded log10(IC50) of Cc1ccc(C2=C(c3ccc(O[C@H]4CCN(CCCF)C4)cc3)c3ccc(O)cc3[S+]([O-])C2)c(F)c1 (single isomer, unassigned) [Example 70] only.
A) 3.22

Q) Answer with the recorded log10(IC50) of "CS(=O)(=O)c1ccc(C2=C(c3ccc(O[C@H]4CCN(CCCF)C4)cc3)c3ccc(O)cc3SCC2)cc1" only.
A) 1.00

Q) Answer with the recorded log10(IC50) of Oc1ccc(C2Sc3cc(O)ccc3OC2c2ccc(O[C@H]3CCN(CCCF)C3)cc2)cc1 (some centres unmarked) only.
A) 2.31

Q) Answer with the recorded log10(IC50) of "Oc1ccc2c(c1)OCCC(c1ccc3c(c1)CCO3)=C2c1ccc(O[C@H]2CCN(CCCF)C2)cc1" only.
A) 0.78

Q) Answer with the recorded log10(IC50) of "Oc1ccc2c(c1)CCCC(c1ccc(OC(F)(F)F)cc1F)=C2c1ccc(N[C@H]2CCN(CCCF)C2)cc1" only.
A) 1.08

Q) Answer with the recorded log10(IC50) of "Oc1ccc2c(c1F)CCCC(c1ccc(OC(F)F)c(F)c1)=C2c1ccc(O[C@H]2CCN(CCCF)C2)nc1" only.
A) 0.00

---

- MEASUREMENT TARGET: ERα in MCF7 cells (Homo sapiens (Human), UniProt P03372)
- Sequence (P03372 whole entry): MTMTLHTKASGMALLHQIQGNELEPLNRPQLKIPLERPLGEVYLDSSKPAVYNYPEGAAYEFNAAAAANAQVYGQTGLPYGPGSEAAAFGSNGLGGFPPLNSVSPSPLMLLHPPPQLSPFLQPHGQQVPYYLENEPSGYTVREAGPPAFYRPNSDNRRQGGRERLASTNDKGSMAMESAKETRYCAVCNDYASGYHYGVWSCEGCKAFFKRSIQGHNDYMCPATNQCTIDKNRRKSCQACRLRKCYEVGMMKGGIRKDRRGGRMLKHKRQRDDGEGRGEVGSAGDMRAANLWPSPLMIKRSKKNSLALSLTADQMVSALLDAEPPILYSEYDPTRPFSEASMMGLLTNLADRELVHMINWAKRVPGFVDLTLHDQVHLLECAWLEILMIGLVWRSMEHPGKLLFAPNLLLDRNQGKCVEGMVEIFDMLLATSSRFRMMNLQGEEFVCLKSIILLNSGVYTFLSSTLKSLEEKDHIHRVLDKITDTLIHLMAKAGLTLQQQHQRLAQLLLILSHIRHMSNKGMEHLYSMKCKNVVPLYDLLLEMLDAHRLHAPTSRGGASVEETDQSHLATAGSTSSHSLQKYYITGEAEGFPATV
- EXPERIMENTAL DETAILS: Test C: estrogen receptor degradation activity, ERα in cell western assay in MCF7 cells
- Format: cell-based
- CONDITION DESCRIPTION: at 3 μM, 4 hours, relative to fulvestrant
PARAMETER MEASURED: % Degradation at 3 μM

Q) Answer with the recorded % Degradation at 3 μM of "Cc1ccc(C2=C(c3cnc(O[C@H]4CCN(CCCF)C4)nc3)c3ccc(O)cc3SC2)c(F)c1" only.
A) 91%

Q) Answer with the recorded % Degradation at 3 μM of "Oc1ccc2c(c1)SCCC(c1ccc(OC(F)F)c(F)c1)=C2c1ccc(O[C@H]2CCN(CCCF)C2)cc1" only.
A) 95%

Q) Answer with the recorded % Degradation at 3 μM of "C[C@@H]1Cc2cc(C3=C(c4ccc(O[C@H]5CCN(CCCF)C5)cc4)c4ccc(O)cc4SCC3)ccc2O1" only.
A) 89%

Q) Answer with the recorded % Degradation at 3 μM of "CCOc1ccc(C2=C(c3ccc(O[C@H]4CCN(CCCF)C4)cc3)c3ccc(O)cc3SC2)c(F)c1F" only.
A) 85%

Q) Answer with the recorded % Degradation at 3 μM of "CCOc1ccc(C2=C(c3ccc(O[C@H]4CCN(CCCF)C4)cc3)c3ccc(O)cc3SCC2)c(F)n1" only.
A) 92%

Q) Answer with the recorded % Degradation at 3 μM of "Oc1ccc2c(c1Cl)OCCC(c1ccc3c(c1)CCN3)=C2c1ccc(O[C@H]2CCN(CCCF)C2)cc1" only.
A) 77%

Q) Answer with the recorded % Degradation at 3 μM of "Cc1c(F)cccc1C1=C(c2ccc(O[C@H]3CCN(CCCF)C3)cc2)c2ccc(O)cc2OCC1" only.
A) 91%

Q) Answer with the recorded % Degradation at 3 μM of "Oc1cc2c(cc1Cl)C(c1ccc(O[C@H]3CCN(CCCF)C3)cc1)=C(c1ccc3c(c1)CCN3)CCO2" only.
A) 74%

Q) Answer with the recorded % Degradation at 3 μM of "Oc1ccc2c(c1)SCCC(c1ccc(OC(F)(F)F)c(F)c1)=C2c1ccc(O[C@H]2CCN(CCCF)C2)cc1" only.
A) 91%

Q) Answer with the recorded % Degradation at 3 μM of "Cc1ccc(C2=C(c3ccc(O[C@H]4CCN(CCCF)C4)cc3)c3ccc(OP(=O)(O)O)cc3SC2)c(F)c1" only.
A) 89%

Q) Answer with the recorded % Degradation at 3 μM of "Cc1noc(C)c1C1=C(c2ccc(O[C@H]3CCN(CCCF)C3)cc2)c2ccc(O)cc2SCC1" only.
A) 90%

Q) Answer with the recorded % Degradation at 3 μM of "Cc1cc2c(cc1O)OCCC(c1ccc3c(c1)CCN3)=C2c1ccc(O[C@H]2CCN(CCCF)C2)cc1" only.
A) 75%

Q) Answer with the recorded % Degradation at 3 μM of "Cc1ccc(C2=C(c3ccc(O[C@H]4CCN(CCCF)C4)cc3)c3ccc(O)cc3S(=O)(=O)CC2)c(F)c1" only.
A) 93%

Q) Answer with the recorded % Degradation at 3 μM of "COc1c(C(=O)O)cccc1C1=C(c2ccc(O[C@H]3CCN(CCCF)C3)cc2)c2ccc(O)cc2OCC1" only.
A) 77%

Q) Answer with the recorded % Degradation at 3 μM of "Oc1ccc2c(c1Cl)OCCC(c1ccc3cc[nH]c3c1)=C2c1ccc(O[C@H]2CCN(CCCF)C2)cc1" only.
A) 81%

Q) Answer with the recorded % Degradation at 3 μM of "CCOc1nccc(C2=C(c3ccc(O[C@H]4CCN(CCCF)C4)cc3)c3ccc(O)cc3SC2)c1Cl" only.
A) 84%

Q) Answer with the recorded % Degradation at 3 μM of "Oc1ccc2c(c1)C(c1ccc(O[C@H]3CCN(CCCF)C3)cc1)=C(c1ccncc1F)CC2" only.
A) 84%

Q) Answer with the recorded % Degradation at 3 μM of "Oc1ccc2c(c1)SCC(c1ccc(SC(F)(F)F)cc1)=C2c1ccc(O[C@H]2CCN(CCCF)C2)cc1" only.
A) 84%

Q) Answer with the recorded % Degradation at 3 μM of "Oc1ccc(C2=C(c3ccc(O[C@H]4CCN(CCCF)C4)cc3)c3ccc(O)cc3SCC2)c(F)c1" only.
A) 85%

Q) Answer with the recorded % Degradation at 3 μM of CC1Cc2c([nH]c3ccccc23)C(c2c(F)cc(O[C@H]3CCN(CCCF)C3)cc2F)N1CC(C)(C)F (single isomer, unassigned) [Example 256] only.
A) 91%

Q) Answer with the recorded % Degradation at 3 μM of "COc1ccc(C2=C(c3ccc(O[C@H]4CCN(CCCF)C4)cc3)c3ccc(O)cc3SC2)cc1F" only.
A) 93%

Q) Answer with the recorded % Degradation at 3 μM of "CCOc1ccc(C2=C(c3ccc(O[C@H]4CCN(CCCF)C4)nc3)c3ccc(O)cc3CCC2)c(F)n1" only.
A) 89%

Q) Answer with the recorded % Degradation at 3 μM of "Oc1cccc(C2=C(c3ccc(O[C@H]4CCN(CCCF)C4)cc3)c3ccc(O)cc3SCC2)c1" only.
A) 88%

Q) Answer with the recorded % Degradation at 3 μM of "Cc1ccc(C2=C(c3ccc(O[C@H]4CCN(CCCF)C4)cc3)c3ccc(O)c(Cl)c3OCC2)c(F)c1" only.
A) 86%

Q) Answer with the recorded % Degradation at 3 μM of "Oc1ccc2c(c1)SCC(c1ccc3c(c1)OC(F)(F)O3)=C2c1ccc(O[C@H]2CCN(CCCF)C2)cc1" only.
A) 86%

Q) Answer with the recorded % Degradation at 3 μM of "Oc1ccc2c(c1)SCCC(c1ccc(Cl)c(F)c1)=C2c1ccc(O[C@H]2CCN(CCCF)C2)cc1" only.
A) 93%

Q) Answer with the recorded % Degradation at 3 μM of "Oc1ccc2c(c1)SCCC(c1ccc(OC(F)(F)F)cc1)=C2c1ccc(O[C@H]2CCN(CCCF)C2)cc1" only.
A) 82%

Q) Answer with the recorded % Degradation at 3 μM of [O-][S+]1CCC(c2ccc(OC(F)(F)F)cc2)=C(c2ccc(O[C@H]3CCN(CCCF)C3)cc2)c2ccc(O)cc21 (some centres unmarked) [Example 225] only.
A) 82%

Q) Answer with the recorded % Degradation at 3 μM of "Oc1ccc2c(c1F)OCCC(c1ccc3c(c1)CCN3)=C2c1ccc(O[C@H]2CCN(CCCF)C2)cc1" only.
A) 82%
